Tgt: T1, KIX domain of CREB-binding protein (residues 586–672 of mouse CBP) (mouse, UniProt P45481 586-672)
T1 construct: KIX domain, residues 586-672 of mouse CBP; 6xHis-tag and thrombin cleavage site at the N-terminus; source: E. coli BL21(DE3)pLysS, purified (Ni-NTA, gel filtration on Superdex 200 pg)
Run description: SPR; competition: mixture of KIX (5 μM) and inhibitor (0.27–200 μM) injected over immobilised His-tag–GB1–MLL TAD; 30 °C; 20 mM sodium phosphate pH 7.0, 100 mM NaCl, 0.05% Tween 20
Condition context: both partners purified
Measurement name: IC50 (µM)
Write the value in µM as a bare number.

Binder	IC50 (µM)
GNILPSDIMDFVLKNTPSMQALGESPESY (MLL TAD, residues 2842-2869 of human MLL; Tyr residue attached at the C-terminus for concentration determination by UV absorption; Used in ITC and immobilised in SPR; also called wild-type MLL TAD; WT; source: E. coli BL21(DE3), purified (Ni-NTA); not shown: His6, N-terminal, kept) [His-tag–GB1–MLL TAD (wild type)]	10.4

Entry under review: GNILPSDIMDFVLKNWPSMQALGESPESY (MLL TAD, residues 2842-2869 of human MLL, with the substitution; Tyr residue attached at the C-terminus for concentration determination by UV absorption; Used in ITC; also called designed T2857W peptide; T2857W mutant of the MLL TAD peptide; source: E. coli BL21(DE3), purified (Ni-NTA); not shown: His6, N-terminal, kept) [His-tag–GB1–MLL TAD T2857W] . Reported IC50? 5.67
